Would you kindly list cytotoxicity at 10 µM for each of these compounds?
PROTOCOL_TEXT: Toxicity liver stage against HepG2, at 10uM
Type: cell-based
Design: test concentration 10 uM, cell line HepG2-A16-CD81EGFP
CONDITIONS: human, HepG2-A16-CD81EGFP cells; read-out: INHIBITION

cytotoxicity at 10 µM for `CC(=O)N1CCC(NC2(Cc3cc(CN(C)C)on3)COC2)CC1` ?
-1.38%

cytotoxicity at 10 µM for Cc1csc(CNCC(C)c2nc3ccccc3o2)n1 (stereo unspecified) ?
-15.6%

cytotoxicity at 10 µM for CC(C)(C)C(=O)N1CC(=O)N(Cc2ccco2)CC(O)C1 (stereo unspecified) ?
4.79%

cytotoxicity at 10 µM for c1ccc(C2CCCN(c3cncc(-n4cccn4)n3)CC2)cc1 (stereo unspecified) ?
48%

cytotoxicity at 10 µM for COc1cccc2c1OCC(C(=O)N1CCC(NS(C)(=O)=O)CC1)C2 (stereo unspecified) ?
1.49%

cytotoxicity at 10 µM for `COCC1CCN(C(=O)c2cc(O)nc(CC(C)C)c2)CC1` ?
-2.7%

cytotoxicity at 10 µM for `Cc1nc(CN(C)c2nccc(N(C)C)n2)cs1` ?
-9.86%

cytotoxicity at 10 µM for COc1ccc(C(=O)N2CCOC(Cc3cccc(C(F)(F)F)c3)C2)o1 (stereo unspecified) ?
-0.869%

cytotoxicity at 10 µM for `O=C(Cc1ccccn1)N1CCC2(CC1)CN(CC1CC1)C(=O)CO2` ?
7.43%

cytotoxicity at 10 µM for Cc1ccc(CN2CC[C@H]3[C@H](CC(Cn4cccn4)N3C)C2)s1 (stereo partly specified) ?
6.66%

cytotoxicity at 10 µM for `Cc1cc(C(=O)N2CCC(O)(Cn3c(C)cc4ccncc43)CC2)on1` ?
9.55%

---

PROTOCOL_TEXT: Toxicity liver stage against HepG2, at 10uM
Type: cell-based
Parameters: test concentration 10 uM, cell line HepG2-A16-CD81EGFP
CONDITIONS: human, HepG2-A16-CD81EGFP cells; read-out: INHIBITION
MEASUREMENT_NAME: cytotoxicity at 10 µM (%)
Numeric only. Scale: %

cytotoxicity at 10 µM for `Cc1cnccc1-n1nc(C(C)C)nc1CCN(C)S(C)(=O)=O` ?
-4.05

cytotoxicity at 10 µM for `CC(=O)CCCC(=O)N(Cc1ccsc1)CC(C)C` ?
-50.3

cytotoxicity at 10 µM for `COc1ncccc1CNC(=O)c1ccco1` ?
-8.48

cytotoxicity at 10 µM for `COc1cc(OC)c(-c2nc3c([nH]2)c(C2CC2)nn3C)cc1OC` ?
-5.02

cytotoxicity at 10 µM for CCSc1ncc(CN2CCC(O)(CN3CCOCC3)C(C)(C)C2)cn1 (configuration not stated) ?
7.49

cytotoxicity at 10 µM for `Cn1nc(Br)c2c(NCCN)ncnc21` ?
20.2

cytotoxicity at 10 µM for CN(CCCC1CCCO1)C(=O)c1cccc(C#N)c1 (configuration not stated) ?
-7.52

cytotoxicity at 10 µM for `Cc1nc(CN(C)Cc2cn[nH]c2-c2ccc(F)cc2)c[nH]1` ?
-17.8

cytotoxicity at 10 µM for CSCC(CCO)Nc1nc(C(F)F)nc2ccccc12 (configuration not stated) ?
-5.52

cytotoxicity at 10 µM for Cc1noc(C)c1-c1ccc(C2CCCN2C(=O)Cn2ccnc2)nc1 (configuration not stated) ?
-10.2

cytotoxicity at 10 µM for CC1CN(C(=O)C2(c3cccc(F)c3)CCOCC2)CCO1 (configuration not stated) ?
4.89

cytotoxicity at 10 µM for CCOCC(O)CN1CCN(C(=O)C2CC2)CC1 (configuration not stated) ?
-7.2

These entries and their values trace back to ChEMBL document CHEMBL4513216.
